target: RARβ (Homo sapiens); test: ligand binding assay, RARβ; settings: read-out: RAR Kd β
Sequence (P10826 whole entry): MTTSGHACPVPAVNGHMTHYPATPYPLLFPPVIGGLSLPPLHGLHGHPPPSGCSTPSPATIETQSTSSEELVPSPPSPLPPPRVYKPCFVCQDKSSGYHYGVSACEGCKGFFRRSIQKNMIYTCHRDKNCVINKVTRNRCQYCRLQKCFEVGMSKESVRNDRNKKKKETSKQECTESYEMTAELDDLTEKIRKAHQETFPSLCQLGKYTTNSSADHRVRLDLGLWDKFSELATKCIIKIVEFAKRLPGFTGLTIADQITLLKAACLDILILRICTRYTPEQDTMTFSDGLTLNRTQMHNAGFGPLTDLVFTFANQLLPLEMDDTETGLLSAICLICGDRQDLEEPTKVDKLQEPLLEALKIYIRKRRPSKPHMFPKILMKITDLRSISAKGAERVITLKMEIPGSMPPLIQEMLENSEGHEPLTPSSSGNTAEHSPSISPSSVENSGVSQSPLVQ

{"molecule": "O=C(O)c1ccc(C#Cc2ccc(C3(N(Cc4ccccc4)Cc4ccccc4)CC3)cc2)cc1 [Compound 114]", "Kd": "> 10 nM"}

---

system: skin of hairless mice; assay: Topical Skin Irritation Test (cutaneous toxicity / Blackjack score); type: in vivo, hairless mouse (Cr1:SKH1-hrBR); settings: 1000 nmole (per 25 g), topical once daily days 1-5, mean±SD, range 0-21
# Fulfilled = Cutaneous Toxicity Score (Blackjack Score) below 5 (exclusive); Not fulfilled = Cutaneous Toxicity Score (Blackjack Score) at/above 5

{"compound": "CC1(C)CC(C)(C)c2cc(C#Cc3ccc(CC(=O)O)cc3)cc(C3CC3)c2O1 [Compound 36]", "category label": "Not fulfilled"}
{"compound": "CN(C1CC1)C1CCC(C)(C)c2cc(C#Cc3ccc(CC(=O)O)cc3)ccc21 (centres unmarked) [Compound 8]", "category label": "Not fulfilled"}
{"compound": "CC1(C)CC(C)(C)c2cc(C#Cc3ccc(CC(=O)O)c(F)c3)cc(C3CC3)c2O1 [Compound 38]", "category label": "Not fulfilled"}
{"compound": "CC1(C)CC2(CC2)Oc2c(C3CC3)cc(C(=O)Oc3ccc(CC(=O)O)cc3)cc21 [Compound 58]", "category label": "Fulfilled"}
{"compound": "CC1(C)CN(C2CC2)Cc2ccc(C#Cc3ccc(CC(=O)O)c(F)c3)cc21 [Compound 22]", "category label": "Fulfilled"}
{"compound": "CN(C1CC1)C1CCC(C)(C)c2cc(C#Cc3ccc(CC(=O)O)c(F)c3)ccc21 (centres unmarked) [Compound 18]", "category label": "Not fulfilled"}
